target: GST-SBP-SLBP (stem-loop binding protein) (Homo sapiens, UniProt Q14493 1-270)
assay-method-text: targeted RNA Bind-n-Seq; RBNS binding buffer: 25 mM Tris pH 7.5, 150 mM KCl, 3 mM MgCl2, 0.1% Tween, 0.5 mg/mL BSA, 1 mM DTT; 27 nM protein, 750 pM RNA pool; temperature not stated; high values mean tight binding
condition-details: protein: recombinant; tags: N-terminal GST and SBP (pGEX6P1-SBP)
I'd be grateful if you could share measured binding signal for these entries.
Provide the reading as a plain figure in log2 fold change.

Q. Recorded binding signal of consensus (structured_RNA) RNA: GGUCACGUCUCAAUCAACUCCCAAAGGUCUUUCUCAGGACCACCCAUCAACAGCUCGCAGUCAAG , please.
A. 1.31

Q. Recorded binding signal of consensus (structured_RNA) RNA: GGUCACGUCUCAAUCAACUCCCAAAGGCCCUUCUCAGGGCCACCCAUCAACAGCUCGCAGUCAAG , please.
A. 3.69

Q. Recorded binding signal of consensus (structured_RNA) RNA: GGUCACGUCUCAAUCAACUCCCAAAGGUUCUUUUCAGAGCCACCCAUCAACAGCUCGCAGUCAAG , please.
A. 2.98

Q. Recorded binding signal of consensus (structured_RNA) RNA: GGUCACGUCUCAAUCAACUCCCAAAGGCUUUUUUUAAAGCCACCCAUCAACAGCUCGCAGUCAAG , please.
A. 2.93

Q. Recorded binding signal of consensus (structured_RNA) RNA: GGUCACGUCUCAAUCAACUCCCAAAGGUUUUUUUCAAAACCACCCAUCAACAGCUCGCAGUCAAG , please.
A. 3.04

Q. Recorded binding signal of consensus (structured_RNA) RNA: GGUCACGUCUCAAUCAACUCCCAAAGGUUUUUCUUAAAACCACCCAUCAACAGCUCGCAGUCAAG , please.
A. 2.59

Q. Recorded binding signal of consensus (structured_RNA) RNA: GGUCACGUCUCAAUCAACUCCCAAAGGUCUUUCUGAAGGCCACCCAUCAACAGCUCGCAGUCAAG , please.
A. 2.15

Q. Recorded binding signal of consensus (structured_RNA) RNA: GGUCACGUCUCAAUCAACUCCCAAAGGUCUUUCUAAAGGCCACCCAUCAACAGCUCGCAGUCAAG , please.
A. 3.19

Q. Recorded binding signal of consensus (structured_RNA) RNA: GGUCACGUCUCAAUCAACUCCCAAAGGCUUUUUUUAGAGCCACCCAUCAACAGCUCGCAGUCAAG , please.
A. 0.854

Q. Recorded binding signal of consensus (structured_RNA) RNA: GGUCACGUCUCAAUCAACUCCCAAAGGCUCUUUUCAGGGCCACCCAUCAACAGCUCGCAGUCAAG , please.
A. 3.57
